FYI, the data here is from patent US9512120B2.

# reported melting point; entries follow
Endpoint Name: melting point

molecule=CCn1c(-n2ncnc2N)nc2cncc(C(C)=NOCc3ccccc3F)c21 endpoint_name="melting point" result="159 to 171 °C"
molecule=CCn1c(-n2ncnc2N)nc2cncc(C)c21 endpoint_name="melting point" result="194 to 198 °C"
molecule=CCON=C(C)c1cncc2nc(-n3ncnc3N)n(CC)c12 endpoint_name="melting point" result="160 to 165 °C"
molecule=C=C(OCC)c1cncc2nc(-n3ncnc3N)n(CC)c12 endpoint_name="melting point" result="193 to 195 °C"
molecule=Nc1ncnn1-c1nc2cncc(Br)c2n1CC(F)(F)F endpoint_name="melting point" result="234 to 236 °C"
molecule="CCn1c(-n2ncnc2N)nc2cncc(C(C)O)c21 (centres unmarked)" endpoint_name="melting point" result="220 to 226 °C"
molecule=Nc1nc(C2CC2)nn1-c1nc2cnccc2n1C1CCCCC1 endpoint_name="melting point" result="196 to 199 °C"
molecule=Nc1ncnn1-c1nc2cncc(Br)c2n1C1CCCCC1 endpoint_name="melting point" result="217 to 218 °C"
molecule=CCc1nc(N)n(-c2nc3cnccc3n2C2CCCCC2)n1 endpoint_name="melting point" result="198 to 203 °C"
molecule=C=CCn1c(-n2ncnc2N)nc2cnccc21 endpoint_name="melting point" result="215 to 216 °C"
molecule=Nc1nc(Br)nn1-c1nc2cnccc2n1C1CCCCC1 endpoint_name="melting point" result="217 to 221 °C"
molecule=Cc1nc(N)n(-c2nc3cnccc3n2C2CCCCC2)n1 endpoint_name="melting point" result="212 to 215 °C"
molecule=CC=Cn1c(-n2ncnc2N)nc2cnccc21 endpoint_name="melting point" result="199 to 200 °C"
molecule=CCn1c(-n2ncnc2N)nc2cncc(CCc3ccccc3)c21 endpoint_name="melting point" result="205 to 208 °C"
molecule=CCn1c(-n2ncnc2N)nc2cncc(C(C)=NOCc3ccccn3)c21 endpoint_name="melting point" result="138 to 149 °C"
molecule=Nc1nc(C(F)(F)F)nn1-c1nc2cnccc2n1C1CCCCC1 endpoint_name="melting point" result="203 to 206 °C"
molecule=CCn1c(-n2ncnc2N)nc2cncc(Cc3ccccc3)c21 endpoint_name="melting point" result="220 to 224 °C"
molecule=CCn1c(-n2ncnc2N)nc2cncc(C(C)=NOC)c21 endpoint_name="melting point" result="170 to 173 °C"
molecule=CCn1c(-n2ncnc2N)nc2cncc(C3=CCN(C(=O)OC(C)(C)C)CC3)c21 endpoint_name="melting point" result="183 to 186 °C"
molecule=CCn1c(-n2ncnc2N)nc2cncc(C(C)=NOCC3CC3)c21 endpoint_name="melting point" result="151 to 163 °C"

====

System: Puccinia recondita f. sp. Tritici
Procedure Text: Puccinia recondita f. sp. tritici / wheat / leaf disc preventative (brown rust)
Format: in vivo
Recorded Conditions: foliar, wheat leaf segments cv Kanzler, inoculated 1 day after application, assessed 7-9 days after application, read-out: control of Puccinia recondita f. sp. Tritici (percent disease control compared to untreated)
# reported pest or weed control at 200 ppm; entries follow
Endpoint Name: pest or weed control at 200 ppm

compound="CCCc1cncc2nc(-n3ncnc3N)n(CCC)c12 [Compound 190]" endpoint_name="pest or weed control at 200 ppm" result="≥ 80%"
compound="CCn1c(-n2ncnc2N)nc2cncc(CCc3ccccc3)c21 [Compound 24]" endpoint_name="pest or weed control at 200 ppm" result="≥ 80%"
compound="CCn1c(-n2ncnc2N)nc2cncc(C(C)=NOCc3ccccc3F)c21 [Compound 137]" endpoint_name="pest or weed control at 200 ppm" result="≥ 80%"
compound="CCn1c(-n2ncnc2N)nc2cncc(-c3ccc(F)c(F)c3F)c21 [Compound 86]" endpoint_name="pest or weed control at 200 ppm" result="≥ 80%"
compound="CCn1c(-n2ncnc2N)nc2cncc(-c3ccccc3C)c21 [Compound 72]" endpoint_name="pest or weed control at 200 ppm" result="≥ 80%"
compound="CCCn1c(-n2ncnc2N)nc2cncc(/C(C)=N\\OC/C=C/Cl)c21 [Compound 182]" endpoint_name="pest or weed control at 200 ppm" result="≥ 80%"
compound="CCn1c(-n2ncnc2N)nc2cncc(/C(C)=N\\OC/C=C(\\C)Cl)c21 [Compound 153]" endpoint_name="pest or weed control at 200 ppm" result="≥ 80%"
compound="CCn1c(-n2ncnc2N)nc2cncc(-c3ccoc3)c21 [Compound 55]" endpoint_name="pest or weed control at 200 ppm" result="≥ 80%"
compound="C=CCn1c(-n2ncnc2N)nc2cnccc21 [Compound 17]" endpoint_name="pest or weed control at 200 ppm" result="≥ 80%"
compound="CCn1c(-n2ncnc2N)nc2cncc(/C(C)=N\\OC(C)C)c21 [Compound 166]" endpoint_name="pest or weed control at 200 ppm" result="≥ 80%"
compound="CCCn1c(-n2ncnc2N)nc2cnccc21 [Compound 13]" endpoint_name="pest or weed control at 200 ppm" result="≥ 80%"
compound="CCn1c(-n2ncnc2N)nc2cncc(/C(C)=N/OC/C=C(\\C)Cl)c21 [Compound 154]" endpoint_name="pest or weed control at 200 ppm" result="≥ 80%"
compound="CCn1c(-n2ncnc2N)nc2cncc(C(C)=NOCC=C(Cl)Cl)c21 [Compound 155]" endpoint_name="pest or weed control at 200 ppm" result="≥ 80%"
compound="CCCn1c(-n2ncnc2N)nc2cncc(/C(C)=N\\OCC=C(C)C)c21 [Compound 188]" endpoint_name="pest or weed control at 200 ppm" result="≥ 80%"
compound="CCn1c(-n2ncnc2N)nc2cncc(-c3ccc(-c4ccc(F)cc4)nc3)c21 [Compound 54]" endpoint_name="pest or weed control at 200 ppm" result="≥ 80%"
compound="CCn1c(-n2ncnc2N)nc2cncc(/C(C)=N/OCC(C)C)c21 [Compound 162]" endpoint_name="pest or weed control at 200 ppm" result="≥ 80%"
compound="CCCC=Cc1cncc2nc(-n3ncnc3N)n(CC)c12 [Compound 68]" endpoint_name="pest or weed control at 200 ppm" result="≥ 80%"
compound="CCn1c(-n2ncnc2N)nc2cncc(C(C)=NOCc3ccccc3)c21 [Compound 165]" endpoint_name="pest or weed control at 200 ppm" result="≥ 80%"
compound="CCn1c(-n2ncnc2N)nc2cncc(-c3cccnc3Cl)c21 [Compound 103]" endpoint_name="pest or weed control at 200 ppm" result="≥ 80%"
compound="CCn1c(-n2ncnc2N)nc2cncc(/C(C)=N\\OC/C=C/Cl)c21 [Compound 149]" endpoint_name="pest or weed control at 200 ppm" result="≥ 80%"
compound="CCCn1c(-n2ncnc2N)nc2cncc(Br)c21 [Compound 110]" endpoint_name="pest or weed control at 200 ppm" result="≥ 80%"
compound="C=C(OCC)c1cncc2nc(-n3ncnc3N)n(CC)c12 [Compound 74]" endpoint_name="pest or weed control at 200 ppm" result="≥ 80%"
compound="CCn1c(-n2ncnc2N)nc2cncc(-c3cccnc3F)c21 [Compound 89]" endpoint_name="pest or weed control at 200 ppm" result="≥ 80%"
compound="CCn1c(-n2ncnc2N)nc2cncc(-c3cccc(Cl)c3Cl)c21 [Compound 87]" endpoint_name="pest or weed control at 200 ppm" result="≥ 80%"
compound="CCc1cncc2nc(-n3ncnc3N)n(CC)c12 [Compound 23]" endpoint_name="pest or weed control at 200 ppm" result="≥ 80%"
compound="CCn1c(-n2ncnc2N)nc2cncc(-c3cccc4c3OC(F)(F)O4)c21 [Compound 48]" endpoint_name="pest or weed control at 200 ppm" result="≥ 80%"
compound="CCn1c(-n2ncnc2N)nc2cncc(-c3cnn(C)c3)c21 [Compound 61]" endpoint_name="pest or weed control at 200 ppm" result="≥ 80%"
compound="CCn1c(-n2ncnc2N)nc2cncc(-c3ccccc3)c21 [Compound 19]" endpoint_name="pest or weed control at 200 ppm" result="≥ 80%"
compound="CCn1c(-n2ncnc2N)nc2cncc(-c3cccc(OC)c3OC)c21 [Compound 83]" endpoint_name="pest or weed control at 200 ppm" result="≥ 80%"
compound="CCCn1c(-n2ncnc2N)nc2cncc(/C(C)=N\\OC/C=C\\Cl)c21 [Compound 180]" endpoint_name="pest or weed control at 200 ppm" result="≥ 80%"
compound="CCCCCCO/N=C(/C)c1cncc2nc(-n3ncnc3N)n(CC)c12 [Compound 147]" endpoint_name="pest or weed control at 200 ppm" result="≥ 80%"
compound="CCn1c(-n2ncnc2N)nc2cncc(C(C)=NOCc3ccc(F)cc3)c21 [Compound 135]" endpoint_name="pest or weed control at 200 ppm" result="≥ 80%"
compound="CCn1c(-n2ncnc2N)nc2cncc(-c3cccc(OC)c3F)c21 [Compound 93]" endpoint_name="pest or weed control at 200 ppm" result="≥ 80%"
compound="CCCn1c(-n2ncnc2N)nc2cncc(-c3ccccc3Cl)c21 [Compound 172]" endpoint_name="pest or weed control at 200 ppm" result="≥ 80%"
compound="CCON=C(C)c1cncc2nc(-n3ncnc3N)n(CC)c12 [Compound 134]" endpoint_name="pest or weed control at 200 ppm" result="≥ 80%"
compound="CCn1c(-n2ncnc2N)nc2cncc(-c3ccc(C)cc3)c21 [Compound 28]" endpoint_name="pest or weed control at 200 ppm" result="≥ 80%"
compound="CCn1c(-n2ncnc2N)nc2cncc(-c3ccc(C)c(F)c3)c21 [Compound 41]" endpoint_name="pest or weed control at 200 ppm" result="≥ 80%"
compound="CCn1c(-n2ncnc2N)nc2cncc(/C(C)=N/OC/C=C/Cl)c21 [Compound 150]" endpoint_name="pest or weed control at 200 ppm" result="≥ 80%"
